Test: in vivo
Conditions: male, C57BL/6J, mouse, iv, 20 mg/kg
Positions of bridges follow the written chain, without caps; N, C: chain ends. Non-standard residues stand in square brackets, D forms with d. Residues, ends and D or L forms follow the SMILES beside them. *: point of attachment. NMeF = CN[C@@H](Cc1ccccc1)C(=O)O; NMeI = CC[C@H](C)[C@H](NC)C(=O)O; NMeL = CN[C@@H](CC(C)C)C(=O)O; NMeV = CN[C@H](C(=O)O)C(C)C; NMeA = CN[C@@H](C)C(=O)O; Piperidide = C1CCN(*)CC1; Sar = CNCC(=O)O; tBu = CC(C)(C)*
Measured parameter: Vd (L/kg)

{"Compound": "CC[C@H](C)[C@H]1C(=O)N[C@@H]([C@@H](C)O)C(=O)N(C)CC(=O)N(C)[C@@H](CC(C)C)C(=O)N[C@H](C(=O)N2CCCCC2)CC(=O)N(C)[C@@H](C)C(=O)N[C@@H](CC(C)C)C(=O)N(C)[C@@H](CC(C)C)C(=O)N(C)[C@@H](Cc2ccccc2)C(=O)N[C@@H](C)C(=O)N(C)[C@@H](Cc2ccccc2)C(=O)N1C [DP-101] ([NMeA]L[NMeL][NMeF]A[NMeF][NMeI]T[Sar][NMeL]D-Piperidide; lactam N-11)", "Measured parameter": "Vd", "Measured value": 0.455}
{"Compound": "CC(C)C[C@H]1C(=O)N2CCC[C@H]2C(=O)N(C)[C@@H](CC(C)C)C(=O)N[C@@H](C)C(=O)N(C)[C@@H](C(C)C)C(=O)N[C@H](C(=O)N2CCCCC2)CC(=O)N(C)[C@@H](C)C(=O)N[C@@H]([C@@H](C)O)C(=O)N(C)CC(=O)N(C)[C@@H](Cc2ccccc2)C(=O)N(C)[C@@H](Cc2ccccc2)C(=O)N1C [DP-67] ([NMeA]T[Sar][NMeF][NMeF][NMeL]P[NMeL]A[NMeV]D-Piperidide; lactam N-11)", "Measured parameter": "Vd", "Measured value": 0.431}
{"Compound": "CC[C@H](C)[C@H]1C(=O)N[C@@H](COC(C)(C)C)C(=O)N(C)[C@@H](Cc2ccccc2)C(=O)N(C)[C@@H](C(C)C)C(=O)N[C@H](C(=O)N2CCCCC2)CC(=O)N(C)[C@@H](C)C(=O)N(C)[C@@H](Cc2ccccc2)C(=O)N[C@@H](CC(C)C)C(=O)N(C)[C@@H](CC(C)C)C(=O)N[C@@H]([C@@H](C)O)C(=O)N(C)CC(=O)N1C [DP-47] ([NMeA][NMeF]L[NMeL]T[Sar][NMeI]S(tBu)[NMeF][NMeV]D-Piperidide; lactam N-11)", "Measured parameter": "Vd", "Measured value": 0.381}

----------
Test: PAMPA (parallel artificial membrane permeability assay)
Type: in vitro ADME
Details: PAMPA, pH 6.5
Starred links: 1 amine or outer side, 2 acyl side, 3 side chain; linkers in the order of their positions; H or OH if unused. Positions of bridges follow the written chain, without caps; N, C: chain ends. Non-standard residues stand in square brackets, D forms with d. Residues, ends and D or L forms follow the SMILES beside them. *: point of attachment. NMeF = CN[C@@H](Cc1ccccc1)C(=O)O; NMeGABA = CN(CCCC(=O)[*:2])[*:1]; NMeL = CN[C@@H](CC(C)C)C(=O)O; NMeV = CN[C@H](C(=O)O)C(C)C; NMeA = CN[C@@H](C)C(=O)O; Piperidide = C1CCN(*)CC1; Sar = CNCC(=O)O; tBu = CC(C)(C)*

{"Compound": "C=C1CCC(=O)N(C)[C@@H](Cc2ccccc2)C(=O)N(C)CC(=O)N(C)[C@@H](CC(C)C)C(=O)N[C@@H]([C@@H](C)O)C(=O)N(C)[C@@H](C)C(=O)N(C)[C@@H](CC(C)C)C(=O)N(C)[C@@H]([C@@H](C)CC)C(=O)N[C@@H](COC(C)(C)C)C(=O)N[C@H](C(=O)N2CCCCC2)Cc2cccc1c2 [DP-831]", "Papp at 18 hours, 50 µM": "55 ×10⁻⁶ cm/s"}
{"Compound": "CC(C)C[C@H]1C(=O)N(C)[C@@H](Cc2ccccc2)C(=O)N[C@@H]([C@@H](C)O)C(=O)N(C)[C@@H](C)C(=O)N(C)[C@@H](CC(C)C)C(=O)N(C)[C@@H](CC(C)C)C(=O)N[C@H](C(=O)N2CCCCC2)CC(=O)N(C)CCCC(=O)N[C@@H](COC(C)(C)C)C(=O)N(C)CC(=O)N1C [DP-122] ([NMeGABA]S(tBu)[Sar][NMeL][NMeF]T[NMeA][NMeL][NMeL]D-Piperidide; lactam N-10)", "Papp at 18 hours, 50 µM": "32 ×10⁻⁶ cm/s"}
{"Compound": "CC[C@H](C)[C@@H]1NC(=O)[C@H](Cc2ccccc2)NC(=O)[C@H](C(C)C)N(C)C(=O)CCCN(C)C(=O)C[C@@H](C(=O)N2CCCCC2)NC(=O)[C@H](Cc2ccccc2)NC(=O)[C@H](CC(C)C)N(C)C(=O)CNC(=O)[C@H](CC(C)C)N(C)C(=O)[C@H](C)N(C)C(=O)[C@H]([C@@H](C)O)NC(=O)[C@H](CC(C)C)NC1=O [DP-273] ([NMeGABA][NMeV]FILT[NMeA][NMeL]G[NMeL]FD-Piperidide; lactam N-12)", "Papp at 18 hours, 50 µM": "21 ×10⁻⁶ cm/s"}

----------
Assay: Metabolic stability in human hepatic microsome
Type: in vitro ADME
Conditions: human, microsomes, pH 7.4, CL NADPH(+)
Starred links: 1 amine or outer side, 2 acyl side, 3 side chain; linkers in the order of their positions; H or OH if unused. Positions of bridges follow the written chain, without caps; N, C: chain ends. Non-standard residues stand in square brackets, D forms with d. Residues, ends and D or L forms follow the SMILES beside them. *: point of attachment. Phe(3-(CH2)4CO) = O=C([C@H](Cc1cccc(CCCCC(=O)[*:3])c1)N[*:1])[*:2]; NEtPhe = CCN[C@@H](Cc1ccccc1)C(=O)O; NMeF = CN[C@@H](Cc1ccccc1)C(=O)O; NMeGABA = CN(CCCC(=O)[*:2])[*:1]; NMeI = CC[C@H](C)[C@H](NC)C(=O)O; NMeL = CN[C@@H](CC(C)C)C(=O)O; NMeV = CN[C@H](C(=O)O)C(C)C; NMeA = CN[C@@H](C)C(=O)O; Piperidide = C1CCN(*)CC1; dNMeA = CN[C@H](C)C(=O)O; β3hA = C[C@H](N)CC(=O)O; Sar = CNCC(=O)O; tBu = CC(C)(C)*
Listed next: entries and their corresponding microsomal CLint at 1 uM.
Measured parameter: microsomal CLint at 1 uM

{"Compound": "CC[C@H](C)[C@H]1C(=O)N(C)[C@@H](CC(C)C)C(=O)N[C@H](C(=O)N2CCCCC2)CC(=O)N[C@H](C)C(=O)N(C)[C@@H](CC(C)C)C(=O)N[C@@H](CC(C)C)C(=O)N(C)[C@@H](Cc2ccccc2)C(=O)N[C@@H](COC(C)(C)C)C(=O)N(C)[C@@H](Cc2ccccc2)C(=O)N[C@@H]([C@@H](C)O)C(=O)N(C)[C@@H](C)C(=O)N1C [DP-96] ([dA][NMeL]L[NMeF]S(tBu)[NMeF]T[NMeA][NMeI][NMeL]D-Piperidide; lactam N-11)", "Measured value": "51 µL/min/mg"}
{"Compound": "CCN1C(=O)CCCCc2cccc(c2)C[C@@H](C(=O)N2CCCCC2)NC(=O)[C@H](CC(C)C)N(C)C(=O)CN(C)C(=O)[C@H]([C@@H](C)O)NC(=O)[C@H](CC(C)C)N(C)C(=O)[C@H](Cc2ccccc2)N(C)C(=O)[C@H](C)NC(=O)[C@@H]1Cc1ccccc1 [DP-863] ([NEtPhe]A[NMeF][NMeL]T[Sar][NMeL][Phe(3-(CH2)4CO)]-Piperidide; lactam N-8)", "Measured value": "927 µL/min/mg"}
{"Compound": "CC[C@H](C)[C@H]1C(=O)N[C@@H]([C@@H](C)O)C(=O)N[C@@H](Cc2ccccc2)C(=O)N2CCC[C@H]2C(=O)NCC(=O)N(C)[C@@H](CC(C)C)C(=O)N[C@H](C(=O)N2CCCCC2)CC(=O)N[C@H](C)C(=O)N[C@@H](Cc2ccccc2)C(=O)N(C)[C@@H](CC(C)C)C(=O)N[C@@H](CC(C)C)C(=O)N1C [DP-227] ([dA]F[NMeL]L[NMeI]TFPG[NMeL]D-Piperidide; lactam N-11)", "Measured value": "141 µL/min/mg"}
{"Compound": "CC[C@H](C)[C@@H]1NC(=O)[C@H](C)NC(=O)C[C@@H](C(=O)N2CCCCC2)NC(=O)[C@H](CC(C)C)NC(=O)[C@H](CC(C)C)NC(=O)[C@H](C(C)C)NC(=O)[C@H](C)N(C)C(=O)[C@H](Cc2ccccc2)NC(=O)CNC(=O)[C@H]([C@@H](C)O)NC(=O)[C@H](CC(C)C)N(C)C(=O)[C@@H]2CCCN2C1=O [DP-5] (AIP[NMeL]TGF[NMeA]VLLD-Piperidide; lactam N-12)", "Measured value": "68 µL/min/mg"}
{"Compound": "CC(C)C[C@H]1C(=O)N(C)[C@@H](Cc2ccccc2)C(=O)NCC(=O)N[C@@H](C)CC(=O)N(C)CCCC(=O)N[C@@H]([C@@H](C)O)C(=O)N(C)[C@@H](C)C(=O)N(C)[C@@H](Cc2ccccc2)C(=O)N[C@@H](COC(C)(C)C)C(=O)N1C [DP-785] (cyclo(G[β3hA][NMeGABA]T[NMeA][NMeF]S(tBu)[NMeL][NMeF]))", "Measured value": "193 µL/min/mg"}
{"Compound": "CC(C)C[C@H]1C(=O)NCC(=O)N[C@H](C(=O)N2CCCCC2)CC(=O)N[C@H](C)C(=O)N[C@@H]([C@@H](C)O)C(=O)N(C)[C@@H](C)C(=O)N(C)[C@@H](Cc2ccccc2)C(=O)N[C@@H](COC(C)(C)C)C(=O)N(C)[C@@H](Cc2ccccc2)C(=O)N1C [DP-52] ([dA]T[NMeA][NMeF]S(tBu)[NMeF][NMeL]GD-Piperidide; lactam N-9)", "Measured value": "136 µL/min/mg"}
{"Compound": "CC[C@H](C)[C@H]1C(=O)N(C)[C@@H](CC(C)C)C(=O)N[C@H](C(=O)N2CCCCC2)CC(=O)N(C)[C@@H](C)C(=O)N(C)[C@@H](CC(C)C)C(=O)N[C@@H](CC(C)C)C(=O)N(C)[C@@H](Cc2ccccc2)C(=O)N[C@@H](COC(C)(C)C)C(=O)N(C)[C@@H](Cc2ccccc2)C(=O)N[C@@H]([C@@H](C)O)C(=O)N(C)[C@@H](C)C(=O)N1C [DP-100] ([NMeA][NMeL]L[NMeF]S(tBu)[NMeF]T[NMeA][NMeI][NMeL]D-Piperidide; lactam N-11)", "Measured value": "80 µL/min/mg"}
{"Compound": "CC[C@H](C)[C@@H]1NC(=O)[C@H](CC(C)C)NC(=O)[C@H](CC(C)C)NC(=O)[C@H](C)N(C)C(=O)[C@H](C(C)C)NC(=O)[C@H](C)NC(=O)C[C@@H](C(=O)N2CCCCC2)NC(=O)[C@H](CC(C)C)NC(=O)[C@H]([C@@H](C)O)NC(=O)[C@@H]2CCCN2C(=O)[C@H](CC(C)C)NC(=O)[C@H](Cc2ccccc2)NC1=O [DP-4] (AV[NMeA]LLIFLPTLD-Piperidide; lactam N-12)", "Measured value": "42 µL/min/mg"}
{"Compound": "CC[C@H](C)[C@H]1C(=O)N[C@H](C(=O)N2CCCCC2)CC(=O)N(C)[C@H](C)C(=O)N[C@@H](Cc2ccccc2)C(=O)N(C)[C@@H](C)C(=O)N(C)[C@@H](CC(C)C)C(=O)N[C@@H]([C@@H](C)O)C(=O)N(C)CC(=O)N(C)[C@@H](C(C)C)C(=O)N[C@@H](C)C(=O)N1C [DP-142] ([dNMeA]F[NMeA][NMeL]T[Sar][NMeV]A[NMeI]D-Piperidide; lactam N-10)", "Measured value": "22 µL/min/mg"}
{"Compound": "CC[C@H](C)[C@H]1C(=O)N[C@@H](C)C(=O)N(C)[C@@H](Cc2ccccc2)C(=O)N(C)[C@@H](Cc2ccccc2)C(=O)N[C@@H]([C@@H](C)O)C(=O)N(C)[C@@H](CC(C)C)C(=O)N2CCC[C@H]2C(=O)N[C@H](C(=O)N2CCCCC2)CC(=O)N[C@@H](C)C(=O)N[C@@H](C(C)C)C(=O)N(C)[C@@H](CC(C)C)C(=O)N(C)CC(=O)N(C)[C@@H](CC(C)C)C(=O)N1C [DP-2] (AV[NMeL][Sar][NMeL][NMeI]A[NMeF][NMeF]T[NMeL]PD-Piperidide; lactam N-13)", "Measured value": "7 µL/min/mg"}

Cited source: patent US9409952B2
